Method summary: Clearance in rat at 0.5 mg/kg, iv administered as bolus dose
Format: ADME, organism-based
Parameters: dose 0.5 mg/kg, route intravenous
Study conditions: in vivo
Value kind: clearance
Remember to put the unit after the number in your answer.

The molecule identified as "CC(C)(C)CN1CCC2(CC1)CN(c1ccccc1NC(=O)Nc1ccc(OC(F)(F)F)cc1)c1ccccc12" registered its clearance at 9.1 mL/min/kg

====

Method summary: Partition coefficient, log P of the compound at pH 7 by reversed-phase HPLC method
Format: physicochemical
Study conditions: octanol/water
Value kind: logP

CN1CCN(c2ccccc2NC(=O)Nc2ccc(OC(F)(F)F)cc2)c2ccccc21 : 5.5
CC(C)CN1CCC2(CC1)CN(c1ccccc1NC(=O)Nc1ccc(OC(F)(F)F)cc1)c1ccccc12 : 5.5
CC(C)N1CCC2(CC1)CN(c1ccccc1NC(=O)Nc1ccc(OC(F)(F)F)cc1)c1ccccc12 : 4.5
O=C(Nc1ccc(OC(F)(F)F)cc1)Nc1ccccc1N1CC2(CCN(Cc3ccccc3)CC2)c2ccccc21 : > 6.3
COC(=O)N1CCC2(CC1)CN(c1ccccc1NC(=O)Nc1ccc(OC(F)(F)F)cc1)c1ccccc12 : 6

Recorded logP (compound "CC(C)NC(=O)N1CCC2(CC1)CN(c1ccccc1NC(=O)Nc1ccc(OC(F)(F)F)cc1)c1ccccc12" ): 5.7

Field logP (entry "O=C(O)CN1CCC2(CC1)CN(c1ccccc1NC(=O)Nc1ccc(OC(F)(F)F)cc1)c1ccccc12" ) reads 4.4

The compound listed as "CC(C)(C)CN1CCC2(CC1)CCN(c1ccccc1NC(=O)Nc1ccc(OC(F)(F)F)cc1)c1ccccc12" has a reported logP of > 6.2

CC(C)(C)CN1CCCC2(C1)CN(c1ccccc1NC(=O)Nc1ccc(OC(F)(F)F)cc1)c1ccccc12 (configuration not stated) yielded logP of > 6.2

====

Method summary: Volume of distribution at steady state in dog at 0.2 mg/kg, po and 0.1 mg/kg, iv
Assay type: ADME, organism-based, Canis lupus familiaris
Study conditions: in vivo, read-out: Vdss
Value kind: Vd (L/kg)
Give a bare numeral; the unit L/kg is implied.

Noted for "CC(C)(C)CN1CCC2(CC1)CN(c1ccccc1NC(=O)Nc1ccc(OC(F)(F)F)cc1)c1ccccc12" : its Vd reads 2.8

====

Listed below: pKi values for each entry.
Tested system: P2Y purinoceptor 1 (Homo sapiens, UniProt P47900)
Sequence (P47900 whole entry): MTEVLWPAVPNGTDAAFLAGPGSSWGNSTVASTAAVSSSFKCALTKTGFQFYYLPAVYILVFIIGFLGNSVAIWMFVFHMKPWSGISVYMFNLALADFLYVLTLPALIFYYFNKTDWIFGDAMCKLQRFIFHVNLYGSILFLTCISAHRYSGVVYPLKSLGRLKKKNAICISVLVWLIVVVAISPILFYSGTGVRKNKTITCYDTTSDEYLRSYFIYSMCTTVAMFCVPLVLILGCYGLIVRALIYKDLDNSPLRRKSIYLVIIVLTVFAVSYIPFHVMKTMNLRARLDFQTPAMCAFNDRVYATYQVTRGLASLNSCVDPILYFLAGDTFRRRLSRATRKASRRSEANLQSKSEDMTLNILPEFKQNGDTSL
Quick note: pKi values are minus log10 of concentrations in mol/L.

Recorded results for 2 compounds are shown here.
COCCN1CCC2(CC1)CN(c1ccccc1NC(=O)Nc1ccc(OC(F)(F)F)cc1)c1ccccc12 : 6.41
CC(C)CN1CCC2(CC1)CN(c1ccccc1NC(=O)Nc1ccc(OC(F)(F)F)cc1)c1ccccc12 : 7.68

Given the compound "O=C(Nc1ccc(OC(F)(F)F)cc1)Nc1ccccc1N1CC2(CCN(Cc3ccccc3)CC2)c2ccccc21" and test system P2Y purinoceptor 1 (Homo sapiens, UniProt P47900), the measured pKi is 7.73

====

Tested system: P2Y purinoceptor 12 (Homo sapiens, UniProt Q9H244)
Sequence (Q9H244 whole entry): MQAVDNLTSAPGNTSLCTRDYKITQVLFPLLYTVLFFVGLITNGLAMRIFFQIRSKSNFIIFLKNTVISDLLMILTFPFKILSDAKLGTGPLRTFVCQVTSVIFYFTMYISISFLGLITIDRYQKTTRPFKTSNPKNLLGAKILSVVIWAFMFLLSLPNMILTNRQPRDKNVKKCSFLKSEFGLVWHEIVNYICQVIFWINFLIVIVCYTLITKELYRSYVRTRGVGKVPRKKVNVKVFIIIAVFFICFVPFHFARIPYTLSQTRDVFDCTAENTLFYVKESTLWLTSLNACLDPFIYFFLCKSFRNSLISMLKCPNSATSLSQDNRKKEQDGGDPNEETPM
Method summary: Displacement of [33P]-2MeS-ADP from P2Y12 receptor (unknown origin) transfected in HEK293 cells after 1 hr by scintillation counting analysis
pIC50: −log10 of the molar value.
Value kind: pIC50

Bench note, P2Y purinoceptor 12 (Homo sapiens, UniProt Q9H244): entry "CC(C)(C)CN1CCC2(CC1)CN(c1ccccc1NC(=O)Nc1ccc(OC(F)(F)F)cc1)c1ccccc12" , its pIC50 = < 4.70

Data origin: ChEMBL document CHEMBL3102727
